systemTested: Prostaglandin G/H synthase 1 (Ovis aries) (UniProt P05979)
Sequence (P05979 whole entry): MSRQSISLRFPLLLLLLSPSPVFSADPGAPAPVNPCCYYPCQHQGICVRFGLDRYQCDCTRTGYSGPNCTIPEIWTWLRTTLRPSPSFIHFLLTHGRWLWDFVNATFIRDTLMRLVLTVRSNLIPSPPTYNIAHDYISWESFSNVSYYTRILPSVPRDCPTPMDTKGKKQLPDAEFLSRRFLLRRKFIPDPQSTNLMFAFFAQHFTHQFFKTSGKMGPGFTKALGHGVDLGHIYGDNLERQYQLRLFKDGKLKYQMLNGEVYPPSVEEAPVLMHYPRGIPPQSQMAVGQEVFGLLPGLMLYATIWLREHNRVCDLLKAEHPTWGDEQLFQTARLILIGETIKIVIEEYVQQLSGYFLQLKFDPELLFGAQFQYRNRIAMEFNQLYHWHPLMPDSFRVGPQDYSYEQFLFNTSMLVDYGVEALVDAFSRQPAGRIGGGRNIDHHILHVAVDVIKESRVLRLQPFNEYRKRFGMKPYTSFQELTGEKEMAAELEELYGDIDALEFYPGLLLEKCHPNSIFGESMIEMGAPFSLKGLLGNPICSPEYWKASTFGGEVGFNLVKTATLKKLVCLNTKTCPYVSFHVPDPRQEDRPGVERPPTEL
assayDetails: Inhibition of ovine COX1 assessed as inhibition of PGF2a formation at 1 uM after 20 mins by Ellman's method
parameter: inhibition (%)

1. CCSC[C@@H]1C[C@](O)(c2ccccc2)[C@@H](c2ccccc2)[C@H](c2ccc(Br)cc2)O1 (relative stereo) :: 41
2. CCSC[C@@H]1C[C@@](O)(c2ccccc2)C[C@H](c2ccc(Cl)cc2)O1 (relative stereo) :: 60
3. CCSC[C@@H]1C[C@@](O)(c2ccccc2)C[C@H](c2ccccc2)O1 (relative stereo) :: 37
4. N#CSC[C@@H]1C[C@](O)(c2ccccc2)[C@@H](c2ccccc2)[C@H](c2ccccc2)O1 (relative stereo) :: 24
5. CCSC[C@@H]1C[C@](O)(c2ccccc2)[C@@H](c2ccccc2)[C@H](c2ccccc2)O1 (relative stereo) :: 16
6. N#CSC[C@@H]1C[C@](O)(c2ccccc2)[C@@H](c2ccccc2)[C@H](c2ccc(Br)cc2)O1 (relative stereo) :: 28
7. C[C@H]1C[C@](O)(c2ccccc2)C[C@@H](CSC#N)O1 (relative stereo) :: 55

----------
Property: inhibition; scope: individual compounds
systemTested: Prostaglandin G/H synthase 1 (Ovis aries) (UniProt P05979)
assayDetails: Inhibition of ovine COX1 assessed as inhibition of PGF2a formation at 10 uM after 20 mins by Ellman's method
parameter: inhibition (%)

1) CCSC[C@@H]1C[C@](O)(c2ccccc2)[C@@H](c2ccccc2)[C@H](c2ccc(Br)cc2)O1 (relative stereo) :: 38
2) N#CSC[C@@H]1C[C@@](O)(c2ccccc2)C[C@H](c2ccc(Br)cc2)O1 (relative stereo) :: 94
3) N#CSC[C@@H]1C[C@@](O)(c2ccccc2)C[C@H](c2ccccc2)O1 (relative stereo) :: 94
4) CCSC[C@@H]1C[C@@](O)(c2ccccc2)C[C@H](c2ccc(Cl)cc2)O1 (relative stereo) :: 94
5) C[C@H]1C[C@](O)(c2ccccc2)C[C@@H](CSC#N)O1 (relative stereo) :: 60
6) CCSC[C@@H]1C[C@](O)(c2ccccc2)[C@@H](c2ccccc2)[C@H](c2ccccc2)O1 (relative stereo) :: 38
